Could you please report measured log10(EC50) for the items listed next?
- Subject Of Test: UniProt P11229
- Assay Method Text: Alphascreen Surefire phospho-ERK1/2 functional assay, M1
- Assay type: cell-based
- Test Parameters: CHO cells stably expressing human M1; phospho-ERK1/2; * = variable results; read-out: pEC50 M1 (converted)
Reminder: these figures are log10 of reported EC50, in nM before transformation.

Look up log10(EC50) for this compound: CCOC(=O)N1CCC2(CC(N3CCC(n4cc(C)cn4)CC3)C2)C1 (single isomer, unassigned) [1-34 Isomer 1]
2.70

Look up log10(EC50) for this compound: CCOC(=O)N1CCC2(CC(N3CCC(c4ccc[nH]c4=O)CC3)C2)C1 (single isomer, unassigned) [3-2 Isomer 1]
1.50

Look up log10(EC50) for this compound: CCOC(=O)N1CCC2(CC(N3CCC(c4ccon4)CC3)C2)C1 (single isomer, unassigned) [1-43 Isomer 2]
2.20

Look up log10(EC50) for this compound: CCOC(=O)N1CCC2(CC(N3CCC([C@@H]4CCCN4C(=O)OCC(F)(F)F)CC3)C2)C1 (single isomer, unassigned) [2-48 Isomer 2]
2.50

Look up log10(EC50) for this compound: CCOC(=O)N1CCC2(CC(N3CCC(c4ccn(C)n4)CC3)C2)C1 (single isomer, unassigned) [1-22 Isomer 2]
2.30

Look up log10(EC50) for this compound: CCOC(=O)N1CCC2(CC(N3CCC(N4C[C@H](F)C[C@@H]4CO)CC3)C2)C1 (single isomer, unassigned) [2-136 Isomer 2]
2.80

Look up log10(EC50) for this compound: CCOC(=O)N1CCC2(CC(N3CCC([C@@H]4CCCN4CCF)CC3)C2)C1 (single isomer, unassigned) [2-68 Isomer 2]
3.00

Look up log10(EC50) for this compound: CCOC(=O)N1CCC2(CC(N3CCC([C@@H]4CCCN4C(=O)CC(F)(F)F)CC3)C2)C1 (single isomer, unassigned) [2-53 Isomer 2]
1.90

Look up log10(EC50) for this compound: CCOC(=O)N1CCC2(CC(N3CCC([C@@H]4CCCN4C(=O)N4CC(F)(F)C4)CC3)C2)C1 (single isomer, unassigned) [2-39 Isomer 2]
3.40

---

- Subject Of Test: human muscarinic M1 receptor (Homo sapiens, UniProt P11229)
- Sequence (P11229 whole entry): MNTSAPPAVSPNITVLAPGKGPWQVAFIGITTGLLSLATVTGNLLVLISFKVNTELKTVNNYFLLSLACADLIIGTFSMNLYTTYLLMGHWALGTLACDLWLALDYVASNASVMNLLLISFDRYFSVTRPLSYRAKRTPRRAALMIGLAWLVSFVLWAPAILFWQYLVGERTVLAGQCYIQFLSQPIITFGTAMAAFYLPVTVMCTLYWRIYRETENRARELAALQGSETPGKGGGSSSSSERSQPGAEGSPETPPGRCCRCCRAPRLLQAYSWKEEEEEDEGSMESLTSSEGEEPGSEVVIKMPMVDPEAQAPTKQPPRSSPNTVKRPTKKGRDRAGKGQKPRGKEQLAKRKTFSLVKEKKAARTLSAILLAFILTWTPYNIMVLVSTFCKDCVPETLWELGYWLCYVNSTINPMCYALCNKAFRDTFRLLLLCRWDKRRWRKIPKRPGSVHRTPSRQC
- Assay Method Text: Alphascreen Surefire phospho-ERK1/2 functional assay, M1
- Format: cell-based
- Test Parameters: CHO cells stably expressing human M1; phospho-ERK1/2; * = variable results; read-out: pEC50 M1 (converted)
Could you please report measured EC50 for the items listed next?
// note: answer is a bare numeric in nM

Look up EC50 for this molecule: CCOC(=O)N1CCC2(CC(N3CCC([C@@H]4CCCN4C(=O)CO)CC3)C2)C1 (single isomer, unassigned) [2-52 Isomer 2]
631

Look up EC50 for this molecule: CCOC(=O)N1CCC2(CC(N3CCC(c4ncc[nH]4)CC3)C2)C1 (single isomer, unassigned) [1-1 Isomer 2]
63.1

Look up EC50 for this molecule: CCOC(=O)N1CCC2(CC(N3CCC(N4C(=O)OC[C@@H]4C(C)C)CC3)C2)C1 (single isomer, unassigned) [2-123 Isomer 2]
316

Look up EC50 for this molecule: CCOC(=O)N1CCC2(CC(N3CCC([C@@H]4CCCN4C(=O)N(C)Cc4ccccn4)CC3)C2)C1 (single isomer, unassigned) [2-63 Isomer 2]
251

Look up EC50 for this molecule: CCOC(=O)N1CCC2(CC(N3CCC(N4CC(F)(F)C[C@@H]4C(=O)N(C)OC)CC3)C2)C1 (single isomer, unassigned) [2-92 Isomer 2]
3160

Look up EC50 for this molecule: CCOC(=O)N1CCC2(CC(N3CCC([C@@H]4CCCN4C(=O)NCCOC)CC3)C2)C1 (single isomer, unassigned) [2-31 Isomer 2]
126

Look up EC50 for this molecule: [2H]C([2H])(C)OC(=O)N1CCC2(CC(N3CCC(n4cccn4)CC3)C2)C1 (single isomer, unassigned) [1-68 Isomer 2]
79.4
